Biological target: T1, GST-TIP1 PDZ domain 1 (Table 9 insert) (Homo sapiens (Human)), O14907
T1 chain: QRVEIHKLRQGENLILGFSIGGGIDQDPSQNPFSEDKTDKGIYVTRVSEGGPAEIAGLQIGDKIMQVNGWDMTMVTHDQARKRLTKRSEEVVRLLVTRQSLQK
Assay: G assay titration, PDZ 0.5 ug/ml

{"binder": "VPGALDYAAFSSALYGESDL (modifications not checked) [a-actinin 2]", "unit_of_measurement": "nM", "Kd": 1000}

Just for reference, patent US20050282743A1 is where these values come from.
